Provenance of the data: ChEMBL document CHEMBL3272324

Assay: Toxicity in po dosed ddY mouse after 3 days by up and down method
Format: organism-based
Conditions: in vivo
REPORTED_PROPERTY: LD50 at 72 h (mg/kg)
Respond with the bare value in mg/kg.

Q. // lookup LD50 at 72 h for O=c1c(F)cn(C2CCCO2)c(=O)n1C1CCCO1 (stereo unspecified)
A. 2900
